These data points were gathered from ChEMBL document CHEMBL3297664.

# target-of-assay: Monoglyceride lipase (Homo sapiens)
# Sequence (Q99685 whole entry): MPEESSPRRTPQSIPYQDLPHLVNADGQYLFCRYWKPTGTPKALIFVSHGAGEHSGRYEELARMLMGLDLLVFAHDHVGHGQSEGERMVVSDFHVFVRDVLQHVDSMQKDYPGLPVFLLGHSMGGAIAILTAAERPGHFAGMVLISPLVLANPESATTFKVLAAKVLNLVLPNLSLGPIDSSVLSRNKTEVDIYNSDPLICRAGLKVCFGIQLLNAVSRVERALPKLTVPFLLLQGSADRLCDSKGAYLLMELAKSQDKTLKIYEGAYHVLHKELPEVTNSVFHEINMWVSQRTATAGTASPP
# assay-summary: Inhibition of human recombinant MAGL using 4-nitrophenylacetate as substrate preincubated for 30 mins followed by substrate addition
quantity-measured: IC50 (nM)
Answers are plain numbers, in nM.

Please state recorded IC50 (tested on Monoglyceride lipase (Homo sapiens)) of COc1nn(-c2ccc(NC(=O)OCc3ccccc3)c(C)c2)c(=O)o1 26

* * *

# target-of-assay: Monoglyceride lipase (Homo sapiens)
# assay-summary: Inhibition of human recombinant MAGL using 4-nitrophenylacetate as substrate
quantity-measured: pIC50
Answers are plain numbers, as −log10 of the molar value.

So what's the measured pIC50 for this one? COc1nn(-c2ccc(NC(=O)OCc3ccccc3)c(C)c2)c(=O)o1 6.84
